Where do these numbers come from? They come from PubChem BioAssay (NCI).

Test system: HCC-2998 colon
Experiment: NCI-60 one-dose screen, 48 h
Conditions: 10 µM unless noted
The panel holds about 83,000 compounds, 20% with a hit somewhere; the sample as a whole holds those more often. Active and inactive are the calls of the source. The calls were made as follows: active = growth percent below 10; inactive = the rest.
The categories you may choose from are label 1 (active), label 0 (inactive)

Some solved entries appear below for comparison.
molecule=N#C/C(=C\c1ccc(-c2ccc(Br)cc2)o1)c1nc(-c2cccs2)cs1 target_of_assay="HCC-2998 colon" category_label="label 0"
molecule=COc1ccc(-c2cc(/C=C/C(=O)c3ccc(N)cc3)[nH]n2)cc1 target_of_assay="HCC-2998 colon" category_label="label 0"

// outcome(item) with item = `Nc1ccccc1NC(=O)c1ccc(CN2CCC/C(=C\c3ccccn3)C2=O)cc1`
label 0

Now consider `CC(C)(C)c1cc(-n2c(-c3ccc(Cl)cc3)nc3cc(C(=O)Nc4ccc(Cl)cc4)ccc32)n[nH]1` and answer again.
label 0

Now consider `CN1CCN(c2nc(-c3csc(-c4cccs4)n3)cc3ccccc23)CC1` and answer again.
label 1

Now consider `CCCCCCCC(=O)SCC/C=C/[C@@H]1CC(=O)NCc2cccc(n2)CN(Cc2ccc(Cl)cc2)CC(=O)N[C@@H](C(C)C)C(=O)O1` and answer again.
label 1

Now consider CCC(c1ccc(OC)cc1)C(CC)c1ccc(O)c(CN2CCCCC2)c1 (centres undefined) and answer again.
label 1

Now consider CN(C)CCCC1(c2ccc(F)cc2)OCc2cc(-c3ccc(C(F)(F)F)nc3)ccc21 (centres undefined) and answer again.
label 0

Now consider `CCN1CCN(C(=O)[C@]23CCC(C)(C)C[C@@H]2C2=CC[C@@H]4[C@@]5(C)C/C(=C/c6cccnc6)C(=O)C(C)(C)[C@@H]5CC[C@@]4(C)[C@]2(C)CC3)CC1` and answer again.
label 0
